// reported Short-time stability (24h, 4°C, without daylight) Accuracy [%] for each item listed
test-details: Short-term stability in spiked pooled human plasma (bench-top, 4 °C, 56 °C)
measurement-conditions: validation standard 2xLLOV
Please give a number only; it is taken to be in %.

Worked set:
COc1cc2nccc(Oc3ccc(NC(=O)Nc4cc(C)on4)c(Cl)c3)c2cc1OC; 103.2
CS(=O)(=O)CCNCc1ccc(-c2ccc3ncnc(Nc4ccc(OCc5cccc(F)c5)c(Cl)c4)c3c2)o1; 96.4
Cc1[nH]c2ccccc2c1CCNCc1ccc(/C=C/C(=O)NO)cc1; 81.5
COC(=O)c1ccc2c(c1)NC(=O)/C2=C(\Nc1ccc(N(C)C(=O)CN2CCN(C)CC2)cc1)c1ccccc1; 103.5
CC1(C)CCC(CN2CCN(c3ccc(C(=O)NS(=O)(=O)c4ccc(NCC5CCOCC5)c([N+](=O)[O-])c4)c(Oc4cnc5[nH]ccc5c4)c3)CC2)=C(c2ccc(Cl)cc2)C1; 102.9

Please fill in: Short-time stability (24h, 4°C, without daylight) Accuracy [%] reported for `COc1cc2ncnc(Nc3ccc(F)c(Cl)c3)c2cc1NC(=O)/C=C/CN1CCCCC1` = 94.9

`COc1cc(N2CCC(N3CCN(C)CC3)CC2)ccc1Nc1ncc(Cl)c(Nc2ccccc2P(C)(C)=O)n1` has a reported Short-time stability (24h, 4°C, without daylight) Accuracy [%] of 102.8

Data point: `N#CC[C@H](C1CCCC1)n1cc(-c2ncnc3[nH]ccc23)cn1` ; Short-time stability (24h, 4°C, without daylight) Accuracy [%] = 97.6

---

test-details: Long-term stability in spiked pooled human plasma
measurement-conditions: validation standard MOV
measurement-name: Long-term stability, 3 month, -80°C Accuracy [%] (%)
Respond with the bare value in %.

Examples with their reported Long-term stability, 3 month, -80°C Accuracy [%] follow.
O=C1CCC(N2C(=O)c3ccccc3C2=O)C(=O)N1 (stereo not shown) [Thalidomide]; 75.0
CC(=O)Nc1cccc(-n2c(=O)n(C3CC3)c(=O)c3c(Nc4ccc(I)cc4F)n(C)c(=O)c(C)c32)c1; 102.5
COc1cc2ncnc(Nc3ccc(F)c(Cl)c3)c2cc1NC(=O)/C=C/CN1CCCCC1; 99.4
CC1(C)CCC(CN2CCN(c3ccc(C(=O)NS(=O)(=O)c4ccc(NCC5CCOCC5)c([N+](=O)[O-])c4)c(Oc4cnc5[nH]ccc5c4)c3)CC2)=C(c2ccc(Cl)cc2)C1; 99.6
Cc1ccc(NC(=O)c2ccc(CN3CCN(C)CC3)cc2)cc1Nc1nccc(-c2cccnc2)n1; 90.1

Now look at this entry.
Record summary for `CO[C@@H]1[C@H](N(C)C(=O)c2ccccc2)C[C@H]2O[C@]1(C)n1c3ccccc3c3c4c(c5c6ccccc6n2c5c31)C(=O)NC4` : reported Long-term stability, 3 month, -80°C Accuracy [%] = 102.9

---

test-details: Long-term stability in spiked pooled human plasma
measurement-conditions: validation standard LLOV
measurement-name: Long-term stability, 2 month, -80°C Accuracy [%] (%)
# output: bare number, implied unit %

Consider the following illustrative entries.
Nc1cccc2c1CN(C1CCC(=O)NC1=O)C2=O (centres unmarked) [Lenalidomide]; 56.2
COC(=O)N[C@@H](C)CNc1nccc(-c2cn(C(C)C)nc2-c2cc(Cl)cc(NS(C)(=O)=O)c2F)n1; 93.1
CC(C)(C)c1nc(-c2cccc(NS(=O)(=O)c3c(F)cccc3F)c2F)c(-c2ccnc(N)n2)s1; 97.9
Cc1nc(Nc2ncc(C(=O)Nc3c(C)cccc3Cl)s2)cc(N2CCN(CCO)CC2)n1; 84.9
CNC(=O)c1ccc(N2C(=S)N(c3cnc(C#N)c(C(F)(F)F)c3)C(=O)C23CCC3)cc1F [Apalutamide]; 102.3
Cn1cnc2c(F)c(Nc3ccc(Br)cc3F)c(C(=O)NOCCO)cc21; 124.3
Cc1ccc(NC(=O)c2ccc(CN3CCN(C)CC3)cc2)cc1Nc1nccc(-c2cccnc2)n1; 103.3

Please turn your attention to the following entry.
response.value for `CS(=O)(=O)CCNCc1ccc(-c2ccc3ncnc(Nc4ccc(OCc5cccc(F)c5)c(Cl)c4)c3c2)o1` (field: Long-term stability, 2 month, -80°C Accuracy [%]) = 98.5

---

Recorded measurements of Short-time stability (24h, RT, with daylight) Accuracy [%], one per entry
test-details: Short-term stability in spiked pooled human plasma (bench-top, 4 °C, 56 °C)
measurement-conditions: validation standard MOV
# number only, unit % dropped from output

Reference set, count: 3
O=C(Nc1cnn2ccc(N3CCC[C@@H]3c3cc(F)ccc3F)nc12)N1CC[C@H](O)C1 [Larotrectinib]; 106.3
C[C@]12CC[C@H](O)CC1=CC[C@@H]1[C@@H]2CC[C@]2(C)C(c3cccnc3)=CC[C@@H]12 [Abiraterone]; 103.1
Cc1cn(-c2cc(NC(=O)c3ccc(C)c(Nc4nccc(-c5cccnc5)n4)c3)cc(C(F)(F)F)c2)cn1 [Nilotinib]; 110.2

Now let's try a different one.
Short-time stability (24h, RT, with daylight) Accuracy [%] for Cc1c(C(=O)Nc2ccc(N3C[C@@H](C)O[C@@H](C)C3)nc2)cccc1-c1ccc(OC(F)(F)F)cc1 [Sonidegib] is 92.2

---

test-details: Long-term stability in spiked pooled human plasma
measurement-conditions: validation standard 2xLLOV
measurement-name: Long-term stability, 2 month, -20°C Accuracy [%] (%)
Write the answer as a number in %, unit excluded.

Study these solved cases before continuing.
O=C1CCC(N2C(=O)c3ccccc3C2=O)C(=O)N1 (centres unmarked) [Thalidomide]; 58.1
CNC(=O)c1cc(Oc2ccc(NC(=O)Nc3ccc(Cl)c(C(F)(F)F)c3)cc2)ccn1; 109.9
CNC(=O)c1ccccc1Sc1ccc2c(/C=C/c3ccccn3)n[nH]c2c1; 87.6
COc1cc(N2CCC(N3CCN(C)CC3)CC2)ccc1Nc1ncc(Cl)c(Nc2ccccc2P(C)(C)=O)n1; 105.4
Cc1ccc(NC(=O)c2ccc(CN3CCN(C)CC3)cc2)cc1Nc1nccc(-c2cccnc2)n1; 104.1
NC(=O)c1cccc2cn(-c3ccc([C@@H]4CCCNC4)cc3)nc12; 104.1
O=C(Nc1cnn2ccc(N3CCC[C@@H]3c3cc(F)ccc3F)nc12)N1CC[C@H](O)C1; 103.6

Okay, next one:
Long-term stability, 2 month, -20°C Accuracy [%] reading for `Cc1ccc(C(=O)Nc2ccc(CN3CCN(C)CC3)c(C(F)(F)F)c2)cc1C#Cc1cnc2cccnn12` : 95.8

---

test-details: Short-term stability in spiked pooled human plasma (bench-top, 4 °C, 56 °C)
measurement-conditions: validation standard MOV
measurement-name: Short-time stability (24h, RT, with daylight) Accuracy [%] (%)
Record the value in %, omitting the unit from your answer.

Observe how each entry below is paired with its result.
N#CC[C@H](C1CCCC1)n1cc(-c2ncnc3[nH]ccc23)cn1 [Ruxolitinib]; 100.6
CO[C@@H]1[C@H](N(C)C(=O)c2ccccc2)C[C@H]2O[C@]1(C)n1c3ccccc3c3c4c(c5c6ccccc6n2c5c31)C(=O)NC4 [Midostaurin]; 88.3
Nc1cccc2c1C(=O)N(C1CCC(=O)NC1=O)C2=O (stereo not shown) [Pomalidomide]; 51.3
Cc1cc(Nc2ncc(Cl)c(Nc3ccccc3S(=O)(=O)C(C)C)n2)c(OC(C)C)cc1C1CCNCC1 [Ceritinib]; 84.1
COc1cc(N2CCC(N3CCN(C)CC3)CC2)ccc1Nc1ncc(Cl)c(Nc2ccccc2P(C)(C)=O)n1 [Brigatinib]; 85.3

Consider the additional compound presented here.
# Short-time stability (24h, RT, with daylight) Accuracy [%] (compound: CC(=O)Nc1cccc(-n2c(=O)n(C3CC3)c(=O)c3c(Nc4ccc(I)cc4F)n(C)c(=O)c(C)c32)c1 [Trametinib] ) is 101.6

---

test-details: Long-term stability in spiked pooled human plasma
measurement-conditions: validation standard ULOV
Measured Long-term stability, 3 month, -20°C Accuracy [%], listed per entry for reference.
// units = %; emit number, no label

Some compounds with recorded Long-term stability, 3 month, -20°C Accuracy [%]:
Cc1c(C(=O)Nc2ccc(N3C[C@@H](C)O[C@@H](C)C3)nc2)cccc1-c1ccc(OC(F)(F)F)cc1; 89.3
CCc1cc2c(cc1N1CCC(N3CCOCC3)CC1)C(C)(C)c1[nH]c3cc(C#N)ccc3c1C2=O; 84.7
O=C1CN2Cc3c(ccc(Cl)c3Cl)N=C2N1 [Anagrelide]; 94.9
Nc1cccc2c1CN(C1CCC(=O)NC1=O)C2=O (stereo not drawn) [Lenalidomide]; 89.8
COc1cc2c(Nc3ccc(Br)cc3F)ncnc2cc1OCC1CCN(C)CC1; 97.4
Cc1cn(-c2cc(NC(=O)c3ccc(C)c(Nc4nccc(-c5cccnc5)n4)c3)cc(C(F)(F)F)c2)cn1; 93.1

Sample `CC1(C)CCC(CN2CCN(c3ccc(C(=O)NS(=O)(=O)c4ccc(NCC5CCOCC5)c([N+](=O)[O-])c4)c(Oc4cnc5[nH]ccc5c4)c3)CC2)=C(c2ccc(Cl)cc2)C1` ; Long-term stability, 3 month, -20°C Accuracy [%] observed: 92.9

Given item `N#CC[C@H](C1CCCC1)n1cc(-c2ncnc3[nH]ccc23)cn1` , the value recorded as its Long-term stability, 3 month, -20°C Accuracy [%] is 95.4

Entry `C[C@]12CC[C@H](O)CC1=CC[C@@H]1[C@@H]2CC[C@]2(C)C(c3cccnc3)=CC[C@@H]12` , Long-term stability, 3 month, -20°C Accuracy [%] reported as 99.7

Recorded values, source paper PMC8699473.
